Just for reference, patent US12030880B2 is where these values come from.

- System: BRD4 (BD2) (Homo sapiens (Human), UniProt O60885)
- Protocol Description: In vitro BRD4 (BD2) enzymatic activity assay (HTRF)
- Run Parameters: GST-BRD4 (BD2, 349-460 aa)
Under this convention, condition met denotes IC50 strictly below 0.7 nM and condition not met denotes IC50 at or above 0.7 nM.

Cn1cc(-c2cc(N=S(C)(C)=O)ccc2Oc2ccc(S(C)(=O)=O)cc2)c2cc[nH]c2c1=O [Example 3]
condition met
Cc1cc(F)cc(C)c1Oc1ccc(N=S(C)(C)=O)cc1-c1cn(C)c(=O)c2[nH]c(C(=O)NCC(F)(F)F)cc12 [Example 22]
condition not met
CCNC(=O)c1cc2c(-c3cc(N=S(C)(C)=O)cnc3Oc3c(C)cc(F)cc3C)cn(C)c(=O)c2[nH]1 [Example 16]
condition met
Cn1cc(-c2cc(N=S(C)(C)=O)cnc2Oc2ccc(F)cc2F)c2cc[nH]c2c1=O [Example 4]
condition met
Cc1cccc(Cl)c1Oc1ncc(N=S(C)(C)=O)cc1-c1cn(C)c(=O)c2[nH]ccc12 [Example 20]
condition met
Cc1cccc(Cl)c1Oc1ccc(N=S(C)(C)=O)cc1-c1cn(C)c(=O)c2[nH]ccc12 [Example 6]
condition not met
Cn1cc(-c2cc(N=S(C)(C)=O)ncc2Oc2ccc(F)cc2F)c2cc[nH]c2c1=O [Example 19]
condition met
CCOC(=O)c1cc2c(-c3cc(N=S(C)(C)=O)ccc3Oc3c(C)cc(F)cc3C)cn(C)c(=O)c2[nH]1 [Example 14]
condition not met
CCNC(=O)c1cc2c(-c3cc(N=S(C)(C)=O)ccc3Oc3c(C)cc(F)cc3C)cn(C)c(=O)c2[nH]1 [Example 10]
condition met
Cn1cc(-c2cc(N=S(C)(C)=O)ccc2Oc2ccc(F)cc2F)c2cc[nH]c2c1=O [Example 5]
condition met
Cc1cc(F)cc(C)c1Oc1ccc(N=S(C)(C)=O)cc1-c1cn(C)c(=O)c2[nH]ccc12 [Example 11]
condition not met
Cc1cn(-c2ccc(N=S(C)(C)=O)cc2-c2cn(C)c(=O)c3[nH]ccc23)ccc1=O [Example 17]
condition not met
CCNC(=O)c1cc2c(-c3cc(N=S(C)(C)=O)cnc3Oc3c(C)cccc3Cl)cn(C)c(=O)c2[nH]1 [Example 21]
condition met
Cn1cc(-c2cc(N=S3(=O)CCCC3)ccc2Oc2ccc(F)cc2F)c2cc[nH]c2c1=O [Example 15]
condition not met
Cn1cc(-c2cc(N=S(C)(C)=O)ccc2OCC2CCOC2)c2cc[nH]c2c1=O (stereo not drawn) [Example 12]
condition not met
Cn1cc(-c2cc(N=S(C)(C)=O)ccc2Nc2ccc(F)cc2F)c2cc[nH]c2c1=O [Example 8]
condition not met
CCNC(=O)c1cc2c(-c3cc(N=S(C)(C)=O)ccc3Oc3c(C)cccc3Cl)cn(C)c(=O)c2[nH]1 [Example 7]
condition met
Cc1ncccc1Oc1ccc(N=S(C)(C)=O)cc1-c1cn(C)c(=O)c2[nH]ccc12 [Example 9]
condition not met

---

- System: Kasumi-1 cells
- Protocol Description: Cell proliferation activity assay in Kasumi-1
- Assay type: cell-based
- Run Parameters: Homo sapiens, inhibiting cell proliferation, 72 hours, Cell-Titer Blue
Observation Type: log10 of IC50 (log10 of the value in nM)

CCOC(=O)c1cc2c(-c3cc(N=S(C)(C)=O)ccc3Oc3c(C)cc(F)cc3C)cn(C)c(=O)c2[nH]1
1.86
Cc1cccc(Cl)c1Oc1ncc(N=S(C)(C)=O)cc1-c1cn(C)c(=O)c2[nH]ccc12
0.97
Cc1cc(F)cc(C)c1Oc1ccc(N=S(C)(C)=O)cc1-c1cn(C)c(=O)c2[nH]ccc12
1.73
Cn1cc(-c2cc(N=S(C)(C)=O)ccc2Oc2ccc(S(C)(=O)=O)cc2)c2cc[nH]c2c1=O
2.19
Cc1cccc(Cl)c1Oc1ccc(N=S(C)(C)=O)cc1-c1cn(C)c(=O)c2[nH]ccc12
1.13
Cn1cc(-c2nc(N=S(C)(C)=O)ccc2Oc2ccc(F)cc2F)c2cc[nH]c2c1=O
0.19
Cn1cc(-c2cc(N=S(C)(C)=O)ncc2Oc2ccc(F)cc2F)c2cc[nH]c2c1=O
0.87

---

- Protocol Description: Animal pharmacokinetic study on compounds
- Format: in vivo
- Run Parameters: rat, po; male rats, single intragastric administration, 5 mg/kg, plasma
Observation Type: half-life (h)

Cn1cc(-c2nc(N=S(C)(C)=O)ccc2Oc2ccc(F)cc2F)c2cc[nH]c2c1=O [Example 18]
5.25
Cn1cc(-c2cc(N=S(C)(C)=O)ccc2Oc2ccc(F)cc2F)c2cc[nH]c2c1=O [Example 5]
2.9
Cn1cc(-c2cc(N=S(C)(C)=O)cnc2Oc2ccc(F)cc2F)c2cc[nH]c2c1=O [Example 4]
2.94

---

- Protocol Description: Animal pharmacokinetic study on compounds
- Format: in vivo
- Run Parameters: rat, po; male rats, single intragastric administration, 5 mg/kg, plasma
Observation Type: AUC(0-inf) (ng·h/mL)

Cn1cc(-c2cc(N=S(C)(C)=O)ccc2Oc2ccc(F)cc2F)c2cc[nH]c2c1=O [Example 5]
2690
Cn1cc(-c2cc(N=S(C)(C)=O)cnc2Oc2ccc(F)cc2F)c2cc[nH]c2c1=O [Example 4]
2300

---

- Test system: Kasumi-1 cells
- Protocol Description: Cell proliferation activity assay in Kasumi-1
- Format: cell-based
- Run Parameters: Homo sapiens, inhibiting cell proliferation, 72 hours, Cell-Titer Blue
pIC50: −log10 of the molar value.
Here, each record is paired with measured pIC50 data.
Observation Type: pIC50

CCNC(=O)c1cc2c(-c3cc(N=S(C)(C)=O)ccc3Oc3c(C)cc(F)cc3C)cn(C)c(=O)c2[nH]1
7.18
CCNC(=O)c1cc2c(-c3cc(N=S(C)(C)=O)ccc3Oc3c(C)cccc3Cl)cn(C)c(=O)c2[nH]1
8.64
CCNC(=O)c1cc2c(-c3cc(N=S(C)(C)=O)cnc3Oc3c(C)cccc3Cl)cn(C)c(=O)c2[nH]1
7.74
Cn1cc(-c2cc(N=S3(=O)CCCC3)ccc2Oc2ccc(F)cc2F)c2cc[nH]c2c1=O
7.86
CCNC(=O)c1cc2c(-c3cc(N=S(C)(C)=O)cnc3Oc3c(C)cc(F)cc3C)cn(C)c(=O)c2[nH]1
7.68
Cn1cc(-c2cc(N=S(C)(C)=O)cnc2Oc2ccc(F)cc2F)c2cc[nH]c2c1=O
8.36
Cn1cc(-c2cc(N=S(C)(C)=O)ccc2Oc2ccc(F)cc2F)c2cc[nH]c2c1=O
7.81

---

- System: BRD4 (BD1) (Homo sapiens (Human))
- Protocol Description: In vitro BRD4 (BD1) enzymatic activity assay (HTRF)
- Run Parameters: GST-BRD4 (BD1, 44-168 aa)
Observation Type: IC50 (µM)

CCNC(=O)c1cc2c(-c3cc(N=S(C)(C)=O)ccc3Oc3c(C)cc(F)cc3C)cn(C)c(=O)c2[nH]1
0.0963
Cn1cc(-c2cc(N=S(C)(C)=O)ccc2Nc2ccc(F)cc2F)c2cc[nH]c2c1=O
0.0024
Cc1cccc(Cl)c1Oc1ncc(N=S(C)(C)=O)cc1-c1cn(C)c(=O)c2[nH]ccc12
0.0129
Cn1cc(-c2cc(N=S(C)(C)=O)ccc2Oc2ccc(F)cc2F)c2cc[nH]c2c1=O
0.0048
Cc1cn(-c2ccc(N=S(C)(C)=O)cc2-c2cn(C)c(=O)c3[nH]ccc23)ccc1=O
0.33
CCNC(=O)c1cc2c(-c3cc(N=S(C)(C)=O)ccc3Oc3c(C)cccc3Cl)cn(C)c(=O)c2[nH]1
0.0243
CCNC(=O)c1cc2c(-c3cc(N=S(C)(C)=O)cnc3Oc3c(C)cccc3Cl)cn(C)c(=O)c2[nH]1
0.0107
Cn1cc(-c2cc(N=S(C)(C)=O)ccc2Oc2ccc(S(C)(=O)=O)cc2)c2cc[nH]c2c1=O
0.0077

---

- System: BRD4 (BD1) (Homo sapiens (Human))
- Protocol Description: In vitro BRD4 (BD1) enzymatic activity assay (HTRF)
- Run Parameters: GST-BRD4 (BD1, 44-168 aa)
Observation Type: log10 of IC50 (log10 of the value in nM)

Cn1cc(-c2cc(N=S3(=O)CCCC3)ccc2Oc2ccc(F)cc2F)c2cc[nH]c2c1=O [Example 15]
0.65
CCNC(=O)c1cc2c(-c3cc(N=S(C)(C)=O)cnc3Oc3c(C)cc(F)cc3C)cn(C)c(=O)c2[nH]1 [Example 16]
1.94
CCOC(=O)c1cc2c(-c3cc(N=S(C)(C)=O)ccc3Oc3c(C)cc(F)cc3C)cn(C)c(=O)c2[nH]1 [Example 14]
1.45
Cn1cc(-c2cc(N=S(C)(C)=O)cnc2Oc2ccc(F)cc2F)c2cc[nH]c2c1=O [Example 4]
-0.03
Cc1cc(F)cc(C)c1Oc1ccc(N=S(C)(C)=O)cc1-c1cn(C)c(=O)c2[nH]c(C(=O)NCC(F)(F)F)cc12 [Example 22]
2.27
Cn1cc(-c2cc(N=S(C)(C)=O)ncc2Oc2ccc(F)cc2F)c2cc[nH]c2c1=O [Example 19]
0.86
Cc1cc(F)cc(C)c1Oc1ccc(N=S(C)(C)=O)cc1-c1cn(C)c(=O)c2[nH]ccc12 [Example 11]
1.47
